Provenance of the data: patent US20260274955A1

Recorded measurements of Anti-CD28 Fab (SEQ ID NOs: 202, 203) signal, one per entry
Measured Target: T1, Anti-CD28 Fab (SEQ ID NOs: 202, 203)
T1 construct: biotinylated and captured on neutravidin coated plates in the phage ELISA
T1 sequence (VH, as listed by the source, chain 1 of 2): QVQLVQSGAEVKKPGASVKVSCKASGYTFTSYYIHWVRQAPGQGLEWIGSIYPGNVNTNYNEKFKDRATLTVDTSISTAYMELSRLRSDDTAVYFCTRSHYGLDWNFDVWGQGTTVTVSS
T1 sequence (VL, as listed by the source, chain 2 of 2): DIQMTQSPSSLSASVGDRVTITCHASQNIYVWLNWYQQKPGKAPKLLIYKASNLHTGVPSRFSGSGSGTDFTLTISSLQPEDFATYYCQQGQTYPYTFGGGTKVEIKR
Test Method Notes: phage ELISA, Fab on plate;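 note: crude clonal phage supernatants added to wells pretreated with blocking buffer with or without CD28 antigen, then bound phage read out via HRP-linked anti-M13 antibody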
I only need the number, thanks.

Recorded Anti-CD28 Fab (SEQ ID NOs: 202, 203) signal of YCDGHTPEYMWKCL [Phage-604] , please.
1.43

Also YCDGHAPEYLGKCL [Phage-609] , if possible.
1.41

Input YCMGHLPIYMEKCL [Phage-670]
1.28

Would you mind doing YCDGHMVQYMAKCL [Phage-639] as well?
1.36

Now this one: YCDGHLSEYIGKCL [Phage-629]
1.37

Next:
Sample YCDGHAPIYMQKCL [Phage-747] — what was its Anti-CD28 Fab (SEQ ID NOs: 202, 203) signal?
1.06

Another binder to check: YCEGHLPMYMTKCL [Phage-686]
1.25

Let us now turn to YCEGHSAEYIAKCL [Phage-614]
1.41
